System: Dd2
method: qHTS profiling for inhibitors of Plasmodium falciparum proliferation (AID 504749); also: nearly all actives have a fitted effect of over 60% in size
experimentalParameters: P. falciparum in erythrocytes, SYBR Green DNA, 72 h; series mostly up to 28.7 µM
Inconclusive results are not listed. Activity calls are given as the source filed them. Calls follow the shape of the dose curve; as a rule, active = well fitted inhibition curve with a large enough effect; inconclusive = small, poorly fitted or top-dose-only effect; inactive = flat fitted curve, though single readings scatter. Where a SMILES comes first, the peptide text is derived from it. Bridges are numbered along the chain shown (N, C = ends). [ ]: non-standard residue; d: D form. hArg = N=C(N)NCCCC[C@H](N)C(=O)O; Mpa = O=C(O)CCS
observable: outcome

Example molecules with recorded outcome:
Inquiry: Dear colleague, I am looking for the recorded outcome of the following molecule: `Cn1c([N+](=O)[O-])cnc1COC(N)=O`
Reply text: inactive

Inquiry: Dear colleague, I am looking for the recorded outcome of the following molecule: `Cc1ccc(S(=O)(=O)NC(=O)NC2CCCCCCC2)cc1`
Reply text: inactive

Inquiry: Dear colleague, I am looking for the recorded outcome of the following molecule: CCCCCCCC(=O)OCC(O)CO (stereo not drawn)
Reply text: inactive

Inquiry: Dear colleague, I am looking for the recorded outcome of the following molecule: `C[C@@H](N)C(=O)O`
Reply text: inactive

Inquiry: Dear colleague, I am looking for the recorded outcome of the following molecule: NC(=O)[C@@H]1CSSCCC(=O)N[C@@H](CCCCN=C(N)N)C(=O)NCC(=O)N[C@@H](CC(=O)O)C(=O)N[C@@H](Cc2c[nH]c3ccccc23)C(=O)N2CCC[C@H]2C(=O)N1 ([Mpa][hArg]GDWPC-NH2; disulfide 1-7)
Reply text: inactive

Others:
Inquiry: Dear colleague, I am looking for the recorded outcome of the following molecule: `O[C@@H]1CO[C@H]2[C@@H]1OC[C@@H]2O`
Reply text: inactive

Inquiry: Dear colleague, I am looking for the recorded outcome of the following molecule: CCCCCCCCCCCCCCCCC(C(=O)O)C(O)(CC(=O)O)C(=O)O (stereo not drawn)
Reply text: inactive

Inquiry: Dear colleague, I am looking for the recorded outcome of the following molecule: `NCc1ccc(S(N)(=O)=O)cc1`
Reply text: inactive

Inquiry: Dear colleague, I am looking for the recorded outcome of the following molecule: `NC(N)=NCCN1CCCCCCC1`
Reply text: inactive

Inquiry: Dear colleague, I am looking for the recorded outcome of the following molecule: `O=C(O)Cn1c(C(=O)Nc2nc(-c3ccccc3Cl)cs2)cc2ccccc21`
Reply text: inactive

Inquiry: Dear colleague, I am looking for the recorded outcome of the following molecule: CCN(CC)CC1CCCCN1CC(=O)N1c2ccccc2C(=O)Nc2cccnc21 (stereo not drawn)
Reply text: inactive

Inquiry: Dear colleague, I am looking for the recorded outcome of the following molecule: `CC(C)=CCC/C(C)=C/CO`
Reply text: inactive

Inquiry: Dear colleague, I am looking for the recorded outcome of the following molecule: `NS(=O)(=O)c1cc2c(cc1C(F)(F)F)NCNS2(=O)=O`
Reply text: inactive

Source of measurements: PubChem BioAssay (NCATS)
